Test system: K4 kissing-loop RNA reporter
Experiment: apparent KD of K4 kissing-loop reporter; higher = weaker reporter binding
Settings: Eterna round: R107; input ligand: none
# label = bin(measured apparent KD of K4 kissing-loop reporter), where bins are class A (below 100 nM), class B (100 nM to below 200 nM), class C (200 nM or more)

>  <construct-sequence>
AAGUACACGAUAGUGUACACCUAGUGAUGUUAGGAUAUGCAGAUAUGCAGAAGGAGCAAGUCAUCUGACAAUAGUCGGAUGACAA [FmnAX 7 #OpenEnded #K4Early]

>  <label>
class A

$$$$
>  <construct-sequence>
CAUGCCAUGAUCCUCCUGGUAUCUCCUGAUACCAGCGUGCUGACACGCCCUUGGCAGCAGGAGUCGAGAGUGAUGUUGUCGAGAA [KL-SSTheo-A9 #analogue]

>  <label>
class B

$$$$
>  <construct-sequence>
AGGAUCCGUCGACAAAAGUCGACAUAAUCCGAGGAUAUGACGAAAGUCAGAAGGUGGACAUAAGUCCAGUGAUGUUGGAGGAUCC [FmnA 17 #SwitchBubble #K4Late]

>  <label>
class C

$$$$
>  <construct-sequence>
AGAUGACAGGGAGGAUAUCCUAAUAUGGGUGAUGUUAGCGAUGUUGAAGGUGUAGUGAUGUUAUGCGGAGAAGGCCCUGUUGUUU [BDazzled - #23 - Exc. FMN B]

>  <label>
class B

$$$$
>  <construct-sequence>
AUGUACACGAUAGUGUACUCCUAGUGAUGUUAGGAUAUGCAGAUAUGCAGAAGGGACAAGUCAUCUGACAAUAGUCGGAUGACAA [FmnAX 10 #OpenEnded #K4Early]

>  <label>
class B

$$$$
>  <construct-sequence>
AGACUACUGACAGGAUAUAACAUAUUAGCUCGUAUACCAAAGGUAUACGAGCACCUUCUAGUGAUGUUAGAAGGGUCGGUAGUCA [Omei KL FMN B Exc B v1]

>  <label>
class B

$$$$
>  <construct-sequence>
UGAUAGGACAGAAGGAGCGGGAGUGAUGUUCCCAAGGAUUGGUCUAGCAAAGCUGGACCCUCCCAGGUAGGUCGCUGUCCUAUCU [ArgBX 5 #SwitchBubble #StaticStem]

>  <label>
class C

$$$$
>  <construct-sequence>
AGAGAGGUGUUUUUUUGAUGUGAGUAAUGGCGAGGACCGGUACGGCCGCCACUCGGGUGAUGUUAGUGAUGUUGAUGUAGUGAUG [p'pmullin]

>  <label>
class A

$$$$

Hi there! Could you help me figure out the category for AGACUACCUACACUGUCAAUAGACAGUGACUAGGAUAUGCUGAUAAGCAGAAGGAGUGAUGUUCCUAAUAAAAGGUGGUAGUCAU [FmnAX 19 #SwitchBubble #StaticStem #K4Early] please?
class C

Another sequence to check: UGGGAUGUUAAAGGAUAUAGAAAGUGAUAUUAGAAAGUGAGUGAUGUUGAUGUAAGUGAUGAUAUGUUAGAAGGUUAACAAAACG [abcd]
class C

Again, but for UGUGGAGAAUAUGAUACCAGCAGUGAGAGAGAGGAAGUAUAGUGAUGUUAUAUGAGAGAAUGCCCUUGGCAGCAUAUGAAGAAGG [SSTheophylB.E]
class B

====

Listed below: apparent KD of K4 kissing-loop reporter values for each entry.
Test system: K4 kissing-loop RNA reporter;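 note: bound reporter read as fluorescence of individual clusters on recovered sequencing chips by microscopy, with normalized cluster intensities fitted with a binding model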
Assay: apparent KD of K4 kissing-loop reporter; higher = weaker reporter binding
Conditions: Eterna round: R107; input ligand: arginine 13.2 mM
Hi! Could you send only the number? It should be in nM, unit omitted.

>  <construct-sequence>
UUAUUAUAUUGUAAUGAUAUAGAAACCGAAGGAGCGACAUAAAAGUCAGGUAGGUCGCGGUGUACUCAGUGAUGUUGAGAGUAUU [JR_SSArginiA_Sub013]

>  <unit-string>
nM

>  <apparent KD of K4 kissing-loop reporter>
265

$$$$
>  <construct-sequence>
CGCGCGGGUUUGAGAGGGUUCGCGCGAAGUGAGGAUAUUUAGGGAGAAAGAAGGCACUAUAAAAUAUAGUGAUGUUAUAUAAGGG [SSFMNA.H]

>  <unit-string>
nM

>  <apparent KD of K4 kissing-loop reporter>
93.9

$$$$
>  <construct-sequence>
GAAUUGACGAGUGAUGUUCGUCCACAAUACCGAGGACCGGUACGGCCGCCACUCGAGCAAUGUGAAUAGGGUCGCGUUUUGCAGU

>  <unit-string>
nM

>  <apparent KD of K4 kissing-loop reporter>
266

$$$$
>  <construct-sequence>
UUUUAAAUGUCUGAUACCAGAGAAAAUAUAUGUAGUGAUGUUAUAUACAAAUUAAAUAAGCUCCCUUGGCAGCAGUAUUAAUUUU [AstrosExc-TheB#10]

>  <unit-string>
nM

>  <apparent KD of K4 kissing-loop reporter>
694

$$$$
>  <construct-sequence>
CAUAUAUACACUAACCCGUACGGUAGUAAGCGAGGACCGGUACGGCCGCCACUCGAUCGUUUCGUGUUAGCACCAGUGAUGUUGG [theeternabot_sameState_KL_Trp_A_3]

>  <unit-string>
nM

>  <apparent KD of K4 kissing-loop reporter>
399

$$$$
>  <construct-sequence>
GCAGACACGCAGUGAUGUUGCGAAACGGAAGGAGCGCGUGAAAACGCAGGUAGGUCGCCGACACAUAAAUUAUAAUUUUGUUUGC [Arginine A K4 14]

>  <unit-string>
nM

>  <apparent KD of K4 kissing-loop reporter>
214

$$$$
>  <construct-sequence>
AUUUUGGUUGAAGGAUAUUCUCCCAUCGACGCGAUAAGAUACUUUGGAAGGUUUGCAGUGAUGUUGGAAGAAGGUCAAAGUUGUA [theeternabot_exclusion_KL_FMN_B_22]

>  <unit-string>
nM

>  <apparent KD of K4 kissing-loop reporter>
382

$$$$
>  <construct-sequence>
AGUGAUGUGGGAAGGAGCGGUAUAUGAAUUCAGUGAUGUUGAAGUGAUGCUGUAAUGAUGUGCCAGGUAGGUCGCCUAGAUGUUA [KL-XARG B26]

>  <unit-string>
nM

>  <apparent KD of K4 kissing-loop reporter>
161

$$$$

For the sequence shown here, AGCUAUUAGACGGCCGCCACUUGCUCUGAGACCUGACAUGGAACCAGUGAUGUUGGUUUGCGUGUAAGGACCGGGUUUGGUGGCG [Tiesbi] , give the reported apparent KD of K4 kissing-loop reporter.
92.2

Now the sequence AAAUAAAUCACGGCCGCCACUGCUAGAGUGAUGUUCUAUUAAUAAUUUCUAAAUUAUAUAAUACUCAGGACCGGGUGAUUUUUAA [JR_SSTryptoB_Sub020]
215

Next entry: CCCGCGUCGUUAGUGAUGUUGACUUCUGAUACCAGUCGCAGGUAGGACCCUUGGCAGCAGCAGUUUUGUUAUAUGUAGGAUCCAG [theeternabot_exclusion_KL_Theo_A_36]
201

// next record CCUGCCAGCACGGCCGCCACUUCUAUUGUAUCUAUUUUUGUAAUCCUUUAGGAGUGAUGUUUUUAAAGGACCGGGUGAUGGCUGA [theeternabot_exclusion_KL_Trp_B_14]
248
